- Tested on: A549/ATCC NSCLC
- ASSAY COMMENT: NCI-60 one-dose screen, 48 h
- REPORTED CONDITIONS: 10 µM unless noted
This is part of a sample that, as a whole, favours compounds with a hit. Of some 83,000 tested, about 20% had one in any assay. Calls of active or inactive are those of the source. The calls were made as follows: active = growth percent below 10; inactive = the rest.
Result category, one only: yes (1) for active, no (0) for inactive

Input line: Outcome? CC1=C(C(=O)n2c3ccccc3c3ccccc32)C(c2cccc([N+](=O)[O-])c2)C(C(=O)n2c3ccccc3c3ccccc32)=C(C)N1
Output line: no (0)

Input line: Repeat for the following compound: Cc1cc(N2CCN(C)CC2)nc(NCc2cc(Nc3ccnc4cc(Cl)ccc34)ccc2F)n1
Output line: yes (1)

Next:
Input line: # outcome recorded in this test, key = CCN(C(=O)N1CCN(c2cc3c(cc2F)c(=O)c(C(=O)O)cn3C2CC2)CC1)c1nc(-c2ccc(C)cc2)cs1
Output line: no (0)

---

- Tested on: NCI-H226 lung
- ASSAY COMMENT: NCI-60 one-dose screen, 48 h (100 = growth as untreated, 0 = no growth, -100 = all killed)
- REPORTED CONDITIONS: 10 µM unless noted
About 83,000 compounds went through this panel and 20% of them were active in at least one assay; those are over-represented in the sample as a whole.
Please enter fulfilled where growth is greater than or equal to 90%, and not fulfilled where it is lower.

Input line: Hello, I need to know if COc1cccc(C(=O)OCC(O)C(=O)NC23CC4CC(CC(C4)C2)C3)c1 (stereo not given) has measured growth not below 90%. Thanks!
Output line: fulfilled

Input line: Try Fc1ccc2c(c1)c(-c1nc(-c3c[nH]c4ncccc34)cs1)cn2CCCN1CCOCC1 next.
Output line: not fulfilled

Input line: What about this molecule? CCOC(=O)c1c(C)nc2ccccc2c1/C=C/c1ccc(OC)cc1
Output line: not fulfilled

More entries:
Input line: growth >= 90% for CN(Cc1cnc2nc(N)nc(N)c2n1)c1c(Cl)cc(C(=O)NC(CCC(=O)O)C(=O)O)cc1Cl (stereo not given) ?
Output line: not fulfilled

Input line: Could you do the same for N#C/C(=C\c1ccc(-c2ccc(Cl)cc2)o1)c1ccc(Cl)cc1 , please?
Output line: not fulfilled

Input line: Cool, now O=C(/C=C/c1ccc(Br)cc1)c1ccc(-n2cc(CN3CCN(c4cc5c(cc4F)c(=O)c(C(=O)O)cn5C4CC4)CC3)nn2)cc1
Output line: not fulfilled

---

- System: TK-10 renal
- ASSAY COMMENT: NCI-60 one-dose screen, 48 h (100 = growth as untreated, 0 = no growth, -100 = all killed)
- REPORTED CONDITIONS: 10 µM unless noted
Compounds without any hit were thinned out: in the full panel of roughly 83,000, 20% have a hit. The source made the active and inactive calls. The calls were made as follows: active = growth percent below 10; inactive = the rest.
This listing pairs molecules with measured growth.

Input line: Entry CN1CCN(CCOc2ccc(-c3cnc4c(-c5ccc(C(F)(F)F)cc5)cnn4c3)cc2)CC1 has what growth?
Output line: 67.4% (inactive)

Next:
Input line: Fill in the blank: the reported growth of COc1ccc(C2C(C#N)=C(N)Oc3c2sc2c(Br)cccc32)cc1 (stereo not drawn) is ____.
Output line: 50.2% (inactive)

Input line: Lookup C#CCn1cnc2c(Nc3cccc(NC(=O)CCl)c3)ncnc21
Output line: 76.9% (inactive)

Input line: Same thing, different molecule: CCOC(=O)NN1CC(O)=C(c2nc(-c3ccc(Br)cc3)cs2)C1=N
Output line: 116% (inactive)

Input line: // repeat for CCN1C(=S)N(CC)C2C1NC(=S)N2/N=C/C=C/c1ccccc1OC (stereo not drawn) and report
Output line: 71.4% (inactive)

Input line: What about this molecule? Clc1ccc(-c2nc(-c3c[nH]c4ncccc34)cs2)cc1
Output line: 39.7% [100 µM] (inactive)

Input line: Also, C#CC#CC#CC#CC#CC#CC#CC#CC[C@H]1OC[C@@H](COC(=O)O[C@@H](C(=O)O[C@H]2C[C@@]3(O)[C@@H](OC(=O)c4ccccc4)[C@@H]4[C@]5(OC(C)=O)CO[C@@H]5C[C@H](O)[C@@]4(C)C(=O)[C@H](OC(C)=O)C(=C2C)C3(C)C)[C@@H](NC(=O)c2ccccc2)c2ccccc2)O1 please.
Output line: 86.5% (inactive)

Input line: Try this molecule next: Cn1cc(-c2csc(-c3cn(C(=O)OC(C)(C)C)c4ccccc34)n2)c2ccnc(Cl)c21
Output line: 52.8% (inactive)

Cited source for all entries: PubChem BioAssay (NCI)
